So I've got a bunch of binders here, and I need their Kd values.
target: T1, rat serum albumin (rat, UniProt P02770 25-608); assay: SPR, single cycle kinetics, pH 7.4
T1 construct: also called RSA

Query block: For the binder M79-H5 (VHH) VHH: QVQLVESGGGLVQPGGSLRLSCAASGSTFSSSSVGWYRQAPGQQRELVAAITSGGSTNTADSVKGRFTISRDNAKNTVYLQMNSLRAEDTAVYYCNVAGRNWVPISRYSPGPYWGQGTLVTVSS , what Kd is on record?
Result block: 20.2 nM

Query block: For the binder R28-H3 (VHH) VHH: QVQLVESGGGLVQPGGSLRLSCAASGRTFIAYAMGWFRQAPGKEREFVAAITNFAGGTTYYADSVKGRFTISRDNSKNTLYLQMNSLRAEDTAVYYCAADRSAQTMRQVRPVLPYWGQGTLVTVSS , what Kd is on record?
Result block: 2.4 nM
